System: RAW-Dual (murine macrophage reporter line)
Test: NF-kB reporter (SEAP) activity fold change vs agonist alone; higher = enhanced NF-kB activity
Settings: modulator concentration 10 µM; agonist: CpG ODN 1826 0.5 ug/mL
Could you please report measured NF-kB reporter for the items listed next?
Please reply with the value in numeric form only.

[Q] Field request: NF-kB reporter | item: CCOc1ccc(S(=O)(=O)N2C3CCC2CC(S(=O)(=O)c2ccccc2)C3)cc1 (stereo not drawn)
[A] 0.976

[Q] What do we get for CCCN(CCC)CCc1cccc2c1CC(=O)N2.Cl ?
[A] 0.998

[Q] What do we get for CS(=O)(=O)N(CC(=O)NCCSCc1cccc(Cl)c1)c1cccc(Cl)c1 ?
[A] 0.978

[Q] What do we get for Nc1nc(N)nc(-c2cc(Cl)ccc2Cl)n1 ?
[A] 0.906

[Q] What do we get for CC1(C)CC(=O)C2=C(C1)OC(N)=C(C#N)C21CCCCC1 ?
[A] 1.01

[Q] What do we get for O=C(CCCN1C(=O)c2cccc3cccc(c23)C1=O)NCCO ?
[A] 1.04

[Q] What do we get for CCc1cccc2c3c([nH]c12)C(CC)(CC(=O)O)OCC3 (stereo not drawn) ?
[A] 0.957

[Q] What do we get for C=CC(=O)Nc1cccc(Oc2nc(Nc3ccc(N4CCN(C)CC4)cc3)nc3ccsc23)c1 ?
[A] 0.0541

[Q] What do we get for OCCN1CCN(CCCN2c3ccccc3C=Cc3ccccc32)CC1 ?
[A] 0.862

[Q] What do we get for O=Cc1cn(CCOc2ccc(Br)cc2)c2ccccc12 ?
[A] 1.25

[Q] What do we get for NNc1ncnc2scc(-c3ccc(Cl)cc3)c12 ?
[A] 0.931

[Q] What do we get for CCN(CC)CCNC(=O)c1c(C)[nH]c(/C=C2\C(=O)Nc3ccc(F)cc32)c1C ?
[A] 0.102

[Q] What do we get for Nc1nccs1 ?
[A] 0.948
